Some binders, each annotated with its measured pIC50.
- subjectOfTest: HLA-DRB1*0405 (human)
- procedureText: competition
- conditionSummary: modification not given
pIC50: −log10 of the molar value.
quantityKind: pIC50

>>> df
                           binder  numericresult
0  LETTMRSPVFTDNSSPPVVP [F209.01]           7.19
1    GIQYLAGLSTLPGNPAIA [F209.05]           8.31
2    AYAAQGYKVLVLNPSVAA [F209.02]           7.29
3  CGKYLFNWAVRTKLKLTPIA [F209.07]           7.04
4  TPAETTVRLRAYMNTPGLPV [F209.03]           7.80
5  ENLPYLVAYQATVCARAQAP [F209.04]           7.12
6  KGGRKPARLIVFPDLGVRVC [F209.06]           7.35
